Hello, the source for this data is ChEMBL document CHEMBL4622895, in case you need it.

- target.desc: Coagulation factor VII (Homo sapiens)
- Sequence (P08709 61-212 limits assumed): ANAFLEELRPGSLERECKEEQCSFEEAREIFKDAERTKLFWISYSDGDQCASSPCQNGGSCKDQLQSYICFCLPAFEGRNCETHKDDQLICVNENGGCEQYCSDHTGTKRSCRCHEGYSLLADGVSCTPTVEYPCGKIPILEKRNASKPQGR
- Sequence (P08709 213-466 limits assumed): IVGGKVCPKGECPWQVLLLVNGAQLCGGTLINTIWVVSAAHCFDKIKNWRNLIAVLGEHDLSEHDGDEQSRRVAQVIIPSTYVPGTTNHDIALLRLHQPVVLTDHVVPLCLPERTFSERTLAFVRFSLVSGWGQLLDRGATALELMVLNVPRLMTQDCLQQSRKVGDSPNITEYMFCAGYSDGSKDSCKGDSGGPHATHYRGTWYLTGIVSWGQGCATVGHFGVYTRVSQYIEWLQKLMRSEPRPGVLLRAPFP
- assay.summary: Inhibition of recombinant human activated factor VII using H-D-[…]-Pro-Arg-pNA as substrate by […]
pIC50: −log10 of the molar value.
measured.metric: pIC50

Please review the entries below; each comes with its answer.
{"smi": "Cc1ccc(-c2ncnc(Nc3ccc(C(=N)N)cc3)c2O)cc1", "pIC50": 6.00}
{"smi": "Cc1ccc(-c2ncnc(Nc3ccc(CN)cc3)c2O)cc1", "pIC50": 4.93}
{"smi": "Cc1ccc(-c2ncnc(Nc3ccc4c(c3)CNC4=N)c2O)cc1", "pIC50": 6.58}
{"smi": "N=C(N)c1ccc2[nH]c(-c3ncnc(-c4ccccc4)c3O)nc2c1", "pIC50": 5.96}

1. N=C(N)c1ccc2[nH]c(-c3n[nH]c(-c4ccccc4)c3O)nc2c1
2. Cc1ccc(-c2ncnc(Nc3ccc(C(=N)N)cc3Cl)c2O)cc1
Of 1 and 2 , which shows the smaller pIC50 value? Please respond with the label that marks your chosen entry.
2

---

- target.desc: Coagulation factor XI (Homo sapiens, UniProt P03951)
- Sequence (P03951 19-387 limits assumed): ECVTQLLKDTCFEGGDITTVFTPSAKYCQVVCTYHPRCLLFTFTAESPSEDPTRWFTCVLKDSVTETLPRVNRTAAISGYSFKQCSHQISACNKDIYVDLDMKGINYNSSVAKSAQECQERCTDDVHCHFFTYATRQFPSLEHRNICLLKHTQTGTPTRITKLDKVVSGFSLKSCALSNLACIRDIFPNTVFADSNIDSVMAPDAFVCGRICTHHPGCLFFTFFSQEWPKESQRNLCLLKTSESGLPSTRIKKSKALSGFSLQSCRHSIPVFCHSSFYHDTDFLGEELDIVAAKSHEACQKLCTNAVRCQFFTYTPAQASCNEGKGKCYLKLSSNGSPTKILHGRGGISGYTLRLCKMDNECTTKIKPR
- Sequence (P03951 388-625 limits assumed): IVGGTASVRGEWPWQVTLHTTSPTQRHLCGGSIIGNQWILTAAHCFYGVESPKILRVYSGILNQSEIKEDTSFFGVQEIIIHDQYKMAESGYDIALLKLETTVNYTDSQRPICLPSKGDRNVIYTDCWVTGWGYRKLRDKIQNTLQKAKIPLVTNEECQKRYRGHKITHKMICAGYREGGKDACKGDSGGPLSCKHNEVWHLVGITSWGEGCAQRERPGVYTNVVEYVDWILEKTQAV
- assay.summary: Inhibition of human activated factor XI using pyroGlu-Pro-Arg-pNA as substrate by […]
measured.metric: IC50 (µM)

Past entries and their recorded results:
{"smi": "Cc1ccc(-c2ncnc(Nc3ccc(C(=N)N)cc3)c2O)cc1", "meas.value": 5.4}
{"smi": "Cc1ccc(-c2ncnc(Nc3ccc4c(c3)CNC4=N)c2O)cc1", "meas.value": 2}

I. Cc1ccc(-c2ncnc(-c3nc4cc(C(=N)N)ccc4[nH]3)c2O)cc1
II. N=C(N)c1ccc2[nH]c(-c3ncnc(-c4ccccc4)c3O)nc2c1
III. Cc1ccc(-c2ncnc(Nc3ccc(CN)cc3)c2O)cc1
IV. Cc1ccc(-c2ncnc(Nc3ccc(C(=N)N)cc3Cl)c2O)cc1
V. N=C(N)c1ccc2[nH]c(-c3n[nH]c(-c4ccccc4)c3O)nc2c1
# sort list by recorded IC50, greatest to least List the labels, following the order given in the request.
III, I, II, IV, V
(III: 24 µM, I: 8.4 µM, II: 4.3 µM, IV: 2.1 µM, V: 0.249 µM)

---

- Species on record: Homo sapiens
- assay.summary: Selectivity index, ratio of IC50 for activated factor X (unknown origin) to IC50 for activated factor IX (unknown origin)
measured.metric: Ratio IC50

{"smi": "Cc1ccc(-c2ncnc(Nc3ccc(C(=N)N)cc3Cl)c2O)cc1", "measured.metric": "Ratio IC50", "meas.value": "> 1000"}
{"smi": "Cc1ccc(-c2ncnc(Nc3cccc(C#N)c3)c2O)cc1", "measured.metric": "Ratio IC50", "meas.value": "> 5"}
{"smi": "Cc1ccc(-c2ncnc(Nc3ccc4ccncc4c3)c2O)cc1", "measured.metric": "Ratio IC50", "meas.value": "> 4"}
{"smi": "Cc1ccc(-c2ncnc(Nc3ccc(C(=N)N)cc3)c2O)cc1", "measured.metric": "Ratio IC50", "meas.value": 6}
{"smi": "Cc1ccc(-c2ncnc(Nc3ccc(CN)cc3)c2O)cc1", "measured.metric": "Ratio IC50", "meas.value": "> 240"}

Identify the reported Ratio IC50 for the following entry. `Cc1ccc(-c2ncnc(Nc3ccc4c(c3Cl)CNC4=N)c2O)cc1`
> 882

Tell me measured Ratio IC50 for `Cc1ccc(-c2ncnc(Nc3ccc4c(N)noc4c3)c2O)cc1` please.
> 75
